system: TMD-8 cells; test: Cell proliferation assay (CellTiter-Glo), TMD-8 cells; format: cell-based; settings: Homo sapiens, TMD8, 120 h, 5-day treatment, read-out: TMD8 cell growth (GI50 μM)
Kindly state log10(GI50) for each of the entries shown.
Give log10 of GI50, with GI50 taken in µM.

Please tell me: log10(GI50) of C=CC(=O)N1CC[C@@H](Nc2ncnc3[nH]c(C#Cc4ccc5ccccc5c4)cc23)C1 [Example 71] , system TMD-8 cells?
-3.00

Please tell me: log10(GI50) of CN(C)C/C=C/C(=O)N1CCC(N(C)c2ncnc3[nH]c(C#CCOc4ccccc4)cc23)C1 (stereo not shown) [Example 39] , system TMD-8 cells?
-0.52

Please tell me: log10(GI50) of C=CC(=O)N1CCC(Nc2ncnc3[nH]c(C#CCOc4ccc(F)c(F)c4)nc23)C1 (stereo not shown) [Example 14] , system TMD-8 cells?
-0.87

Please tell me: log10(GI50) of CNC/C=C/C(=O)N1CCC(Nc2ncnc3[nH]c(C#CCOc4ccccc4)cc23)C1 (stereo not shown) [Example 35] , system TMD-8 cells?
-0.02

Please tell me: log10(GI50) of C=CC(=O)N1CC[C@@H](Nc2ncnc3[nH]c(C#CCOc4cccc(F)c4F)cc23)C1 [Example 91] , system TMD-8 cells?
-2.82

Please tell me: log10(GI50) of CC#CC(=O)N1CC[C@@H](Nc2ncnc3[nH]c(C#CCOc4ccccc4F)cc23)C1 [Example 47] , system TMD-8 cells?
-2.10

Please tell me: log10(GI50) of CN(C)C/C=C/C(=O)N1CCC(Nc2ncnc3[nH]c(C#CCOc4ccccc4F)nc23)C1 (stereo not shown) [Example 23] , system TMD-8 cells?
-0.97

Please tell me: log10(GI50) of C=CC(=O)N1CC[C@@H](Nc2ncnc3[nH]c(C#Cc4ccc5c(c4)OCO5)cc23)C1 [Example 72] , system TMD-8 cells?
-3.15

Please tell me: log10(GI50) of CN(C)C/C=C/C(=O)N1CCN(c2ncnc3[nH]c(C#CCOc4ccccc4)nc23)CC1 [Example 7] , system TMD-8 cells?
-0.85

Please tell me: log10(GI50) of CN(C)C/C=C/C(=O)N1CC[C@@H](Nc2ncnc3[nH]c(C#Cc4ccccc4Cl)cc23)C1 [Example 56] , system TMD-8 cells?
0.00

Please tell me: log10(GI50) of C=CC(=O)N1CCC(Nc2ncnc3[nH]c(C#CCOc4cccc(OC)c4)nc23)C1 (stereo not shown) [Example 26] , system TMD-8 cells?
-0.61

Please tell me: log10(GI50) of O=C(/C=C/CN1CCCC1)N1CCC(Nc2ncnc3[nH]c(C#CCOc4ccccc4)nc23)C1 (stereo not shown) [Example 12] , system TMD-8 cells?
0.11

Please tell me: log10(GI50) of C=CC(=O)N1CC[C@@H](Nc2ncnc3[nH]c(C#CCOC4CCCCO4)cc23)C1 (stereo partly shown) [Example 84] , system TMD-8 cells?
0.04

Please tell me: log10(GI50) of C=CC(=O)N1CC[C@@H](Nc2ncnc3[nH]c(C#Cc4ccc(Cl)c(F)c4)cc23)C1 [Example 70] , system TMD-8 cells?
-2.89

Please tell me: log10(GI50) of C=CC(=O)N1CCN(c2ncnc3[nH]c(C#CCOC)cc23)CC1 [Example 5] , system TMD-8 cells?
0.22

Please tell me: log10(GI50) of C=CC(=O)N1CC[C@@H](Nc2ncnc3[nH]c(C#CC4CCCCC4)cc23)C1 [Example 78] , system TMD-8 cells?
0.43

Each recorded value in this set is attributed to patent US10144737B2.
